Origin of values: paper PMC4575845

- target.system: P. aeruginosa GluRS (Pseudomonas aeruginosa)
- Sequence (Q9XCL6 whole entry): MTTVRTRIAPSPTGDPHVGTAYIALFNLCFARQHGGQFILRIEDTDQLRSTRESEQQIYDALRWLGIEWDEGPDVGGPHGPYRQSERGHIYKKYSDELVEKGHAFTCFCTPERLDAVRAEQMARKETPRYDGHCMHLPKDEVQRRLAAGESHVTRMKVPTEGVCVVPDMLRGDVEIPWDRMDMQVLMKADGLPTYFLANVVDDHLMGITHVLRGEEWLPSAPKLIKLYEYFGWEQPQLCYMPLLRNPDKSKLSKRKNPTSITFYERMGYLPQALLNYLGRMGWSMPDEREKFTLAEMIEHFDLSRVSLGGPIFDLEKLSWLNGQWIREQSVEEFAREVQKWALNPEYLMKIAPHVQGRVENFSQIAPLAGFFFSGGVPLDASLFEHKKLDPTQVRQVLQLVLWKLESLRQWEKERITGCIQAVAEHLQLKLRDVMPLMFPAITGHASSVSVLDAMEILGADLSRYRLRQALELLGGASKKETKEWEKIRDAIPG
- test.details: SPA-based tRNA aminoacylation assay
measurement.type: IC50
Answer as a quantity: numeral, then unit.

CC1(C)SC(=S)N(/N=C/C=C/c2ccc([N+](=O)[O-])o2)C1N(O)C(=O)Nc1cccc(Cl)c1 (centres unmarked) ... 24.9 µM

From here, focus on the item given below.
Q: Using the record for O=C(Nc1ccc(-c2cc(C(F)(F)F)nn2-c2ccccc2)cc1)Nc1ccc(F)cc1F , report its IC50.
Ans: 21.9 µM
